Every entry's value here was drawn from the supplement of paper PMC10567573.

assay: protein stability index of a GFP-peptide fusion (GPS, HEK-293T) (PSI 1-6); higher = more stable; settings: treatment: DMSO; c terminus: a fixed tail appended;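 further: 24-mer peptide tiles fused after GFP, lentivirally expressed, FACS-sorted into six equal bins by GFP/DsRed ratio, decoded by Illumina sequencing, PSI is the read-weighted mean bin number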
Please mark Criterion met if the recorded protein stability index is equal to or greater than 3, and Criterion not met if it falls below.

{"SEQ_STRING": "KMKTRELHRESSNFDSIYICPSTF [HDAC6]", "CLASS": "Criterion not met"}
{"SEQ_STRING": "HNAVTSHQRPGWPGQPHSPFPHPT [NCF4]", "CLASS": "Criterion met"}
{"SEQ_STRING": "TAEPFPRLHNLYSTPRCAQQAALP [CBY2]", "CLASS": "Criterion not met"}
{"SEQ_STRING": "MSRMQSKEYPVVPRSTVRQKVASN [TBX5]", "CLASS": "Criterion met"}
{"SEQ_STRING": "EIVVTISWAKSIPGFSSLSLSDQM [ESRRA]", "CLASS": "Criterion met"}

Query string: Say whether WMPPPSRADSFKVSYQLADGGEPQ [TNXB] shows protein stability index of 3 or more.
Result string: Criterion met

Query string: Say whether LDAVQVLSGVSQLLPKSRENYLNR [FCHO1] shows protein stability index of 3 or more.
Result string: Criterion met

Query string: Say whether QCSNRIGSMKIKSSWDIDGRATKR [FBXO34] shows protein stability index of 3 or more.
Result string: Criterion met

Query string: Say whether QPCFFQDISMEIPQEFQKTVSTMY [SCAMP3] shows protein stability index of 3 or more.
Result string: Criterion not met

Query string: Say whether RKRMKMDKTCSKTKNKSKHALRKK [FAM9B] shows protein stability index of 3 or more.
Result string: Criterion met

Query string: Say whether LQAESPPVDPDSQADTVHSNPELD [DNAAF3] shows protein stability index of 3 or more.
Result string: Criterion met
